assay: method code SF-AS, from DOI: 10.1248/cpb.17.2558; conditions: pH 5.5
PROPERTY_NAME: logD
Answer with a number only.

-- ask Note down logD recorded for `Nc1nnc(S(N)(=O)=O)s1`
-- reply -0.9

* * *

PROPERTY_NAME: logP
Number only, no unit.

-- ask Specify reported logP for the compound shown: `O=NN(CCF)C(=O)NC1CCS(=O)(=O)CC1`
-- reply -0.41

* * *

PROPERTY_NAME: logP
Provide a numeric answer; units are not to be included.

-- ask Fill in logP for record `O=S1(=O)OC(c2ccc(O)cc2)(c2ccc(O)cc2)c2ccccc21`
-- reply 3.02

* * *

experiment: method code SF-AS, from DOI: 10.1016/s0021-9673(00)82600-x
Entries and their logP
Number, no unit, nothing else.

Some molecules with known logP results, for comparison:
CNc1cnn(-c2ccccc2)c(=O)c1Cl : 1.19
CN(C)c1cnn(-c2cccc(C(F)(F)F)c2)c(=O)c1Cl : 2.67

Read the next record carefully.
-- ask Retrieve logP measured for `Nc1cnn(-c2cccc(C(F)(F)F)c2)c(=O)c1Cl` and print it.
-- reply 2.41

* * *

assay: method code SF-AS, from DOI: 10.1093/chemse/13.4.619; details: pH 7.2
PROPERTY_NAME: logD

The cases that follow already have their logD on record.
c1ccc(Cc2ccncc2)cc1 : 2.62
O=C(c1ccccc1)c1ccncc1 : 1.9

-- ask Please supply the value of reported logD for the item `CC(=O)c1ccncc1`
-- reply 0.4

-- ask State its logD for this compound: `O=[N+]([O-])c1ccc(Cc2ccncc2)cc1`
-- reply 2.73

* * *

assay: method code SF-GLC, from DOI: 10.1016/0045-6535(95)00311-u
PROPERTY_NAME: logP
// no unit string in output, number only

-- ask Specify logP for CCCCCCCCC(Cl)C(Cl)(Cl)Cl (stereo unspecified) and stop.
-- reply 5.93

* * *

PROPERTY_NAME: logP
Output: the number by itself.

-- ask Answer with the recorded logP of `CN(C)CCc1c[nH]c2ccc(CS(=O)(=O)N3CCCC3)cc12` only.
-- reply 1.6

* * *

PROPERTY_NAME: logP
Format: numeric value only, no unit, no commentary.

-- ask State its logP: `CCC[N+](=O)[O-]`
-- reply 0.86

* * *

test: method code SF-HPLC, from DOI: 10.1016/j.ejmech.2003.12.002, PMID: 15051170
Overview of recorded logP for various compounds
# print the numeric value only

Worked examples follow.
COC(=O)C(C)NP(=O)(OCC1C=CC(n2cc(C)c(=O)[nH]c2=O)O1)Oc1c(OC)cccc1OC (stereo not drawn) : 0.4
CC1CN(C2C=CC(COP(=O)(NC(C)C(=O)O)Oc3ccc(Br)cc3Cl)O2)C(=O)NC1=O (stereo not drawn) : 1.81

-- ask # return recorded logP for input COC(=O)C(C)NP(=O)(OCC1C=CC(n2cc(C)c(=O)[nH]c2=O)O1)Oc1ccccc1Br (stereo not drawn)
-- reply 0.95

* * *

conditions: pH 4.3
PROPERTY_NAME: logD
Field format: numeric only.

-- ask Provide logD value for the following compound: `Nc1ccc(S(=O)(=O)Nc2ncccn2)cc1`
-- reply -0.04

* * *

PROPERTY_NAME: logP
Please respond with just the number, no unit label.

C=CC(=O)OC : 0.74

-- ask Report logP for `C=CC(=O)OCC(C)(C)C`
-- reply 2.32
